- assayedTarget: T1, IL-18 receptor (IL-18Rα/IL-18Rβ) overexpressed on HEK-Blue IL-18 cells (Homo sapiens (Human), UniProt Q13478 19-541; O95256 20-599)
- T1 sequence 1: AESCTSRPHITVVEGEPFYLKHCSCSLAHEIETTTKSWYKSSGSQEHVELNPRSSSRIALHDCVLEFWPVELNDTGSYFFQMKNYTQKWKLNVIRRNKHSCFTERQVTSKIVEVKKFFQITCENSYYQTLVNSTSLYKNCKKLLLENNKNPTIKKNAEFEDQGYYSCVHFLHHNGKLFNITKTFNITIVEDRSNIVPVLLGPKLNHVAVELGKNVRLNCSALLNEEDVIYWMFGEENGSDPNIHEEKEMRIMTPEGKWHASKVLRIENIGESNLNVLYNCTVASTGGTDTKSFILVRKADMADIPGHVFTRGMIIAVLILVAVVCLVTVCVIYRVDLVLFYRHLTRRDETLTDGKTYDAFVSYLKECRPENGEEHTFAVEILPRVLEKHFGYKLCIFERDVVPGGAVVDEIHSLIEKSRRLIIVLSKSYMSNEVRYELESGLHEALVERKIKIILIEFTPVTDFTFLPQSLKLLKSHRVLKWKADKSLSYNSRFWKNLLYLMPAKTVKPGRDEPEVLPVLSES
- T1 sequence 2: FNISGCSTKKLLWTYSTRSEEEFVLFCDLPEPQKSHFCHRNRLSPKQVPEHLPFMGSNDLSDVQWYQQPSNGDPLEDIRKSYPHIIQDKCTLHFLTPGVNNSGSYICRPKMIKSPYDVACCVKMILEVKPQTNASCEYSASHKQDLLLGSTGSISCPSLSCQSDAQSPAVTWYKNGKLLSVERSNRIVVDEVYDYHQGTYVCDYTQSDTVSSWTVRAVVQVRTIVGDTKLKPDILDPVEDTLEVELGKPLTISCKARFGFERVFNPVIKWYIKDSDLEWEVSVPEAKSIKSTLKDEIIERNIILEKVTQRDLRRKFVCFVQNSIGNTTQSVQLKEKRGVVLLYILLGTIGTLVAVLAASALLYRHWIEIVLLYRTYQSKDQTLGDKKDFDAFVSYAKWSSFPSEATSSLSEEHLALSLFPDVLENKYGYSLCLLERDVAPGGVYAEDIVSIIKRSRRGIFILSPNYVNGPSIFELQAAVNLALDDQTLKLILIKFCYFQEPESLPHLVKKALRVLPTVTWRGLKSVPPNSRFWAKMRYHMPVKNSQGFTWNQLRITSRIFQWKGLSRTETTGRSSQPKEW
- procedureText: cell-based or functional assay
HEK-Blue IL-18: Fold over Background less than 2 fold is met; HEK-Blue IL-18: Fold over Background greater than or equal to 2 fold is not met.

Take a look at these entries with their results.
* DGL321 (bispecific antibody, V domains shown) V domain 1: QVQLQESGGGLVQPGGSARLSCVASGIIFNDYHMGWYRQAPGKQRDLVAGITAGGSTTYADSVKGRFTISRDNAKHTVYLQMNNLSPEDTAVYYCNTFYNAILDWGKGTLVTVSS V domain 2: QLQLVESGGGLVQAGGSLRLSCAASRSITFSHNVMGWYRQAPGKQRELVASIGSGGSTNYVDSVKGRATISRDNAKKTVYLQMNSLKPEDTAVYYCGVVVGVYRGSLGQGTQVTVSS | met
* DGL253 (bispecific antibody, V domains shown) V domain 1: QVQLVESGGGLVQAGGSLRLSCAASGRTFSKHAMGWFRQAPGKEREFVAAIDWSGGSTYYADSVKGRFTISRDNAKNTVYLQMDSLKPEDTAVYYCAADSYTDYAQLWLPELESEYDYWGQGTQVTVSS V domain 2: QVQLQESGGGLVQAGGSPRLSCAVSGTAFNINNFMGWYRQAPGKQRELVATITGSSTTNYASSVKGRFTISRDSAKNTVYLQMNSLKPEDTAVYYCNLRRGGWYNYWGQGTQVTVSS | met
* DGL293 (bispecific antibody, V domains shown) V domain 1: QVQLVESGGGLVQAGGSLRLSCAASGRTFSSYDMGWFRQAPGKEREFVAALRWSGGSTSYADSVKGRFTISRDNAKNTVYLHMNSLKPEDTAVYYCAATLETDSGTYWADYWGQGTQVTVSS V domain 2: QVQLVESGGDLVLPGGSLKLSCEASGSISSRNSMAWYRRAPGKQRELVAAISSISSGGRTDYADFVKGRFTIFRDTAKNMVYLQMNNLKPEDTAVYDCDDPIRVASLAYDDWGQGTQVTVSS | not met

Given DGL304 (bispecific antibody, V domains shown) V domain 1: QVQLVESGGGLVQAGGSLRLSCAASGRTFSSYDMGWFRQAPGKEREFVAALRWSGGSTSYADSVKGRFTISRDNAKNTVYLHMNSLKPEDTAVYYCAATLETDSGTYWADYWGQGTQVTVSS V domain 2: QVQLQESGGGLVQPGGSLGLSCAASGIKISVNSMAWYRQAPGERREMVAVISSGGSAVYADSVKGRFTISRDNAKNMVYLQMNSLKPEDTAVYYCHPGSAAYRDYWGQGTQVTVSS , is recorded HEK-Blue IL-18: Fold over Background strictly lower than 2 fold?
not met

Please indicate whether the reported HEK-Blue IL-18: Fold over Background of DGL315 (bispecific antibody, V domains shown) V domain 1: QVQLQESGGGLVQPGGSARLSCVASGIIFNDYHMGWYRQAPGKQRDLVAGITAGGSTTYADSVKGRFTISRDNAKHTVYLQMNNLSPEDTAVYYCNTFYNAILDWGKGTLVTVSS V domain 2: QVQLVESGGGLVQAGGSLRLSCAASGMFFSIGEMGWYRQAPGKQREMVARITRDGRINYADSVEGRFTASRNVAKTTLFLQMNSLKPEDTANYQCTVRRWDEEYWGKGTLVTVSD is strictly below 2 fold.
not met
